Target Entity: HLA-A*01:01 (Homo sapiens, UniProt P04439, A114D/A174V/A182V/D101N/D185E/E176A/E190D/L180R/Q94H/R68K/S129P/T187R/V100A/V91M/W191G)
Assay Text: MHC binding assay: UV-ligand exchange, ELISA of stabilized MHC complexes (peptide exchange yield)
Applied Conditions: binding to HLA-A*01:01, UV-ligand exchange
Metric Name: Peptide exchange

Completed entries (count: 8):
285 (VLPHHSEGACVY; listed as Homo sapiens) [compound 285] | +++ (>50 = +++)
118 (LTWAHSAKY; listed as Homo sapiens) [compound 118] | +++ (>50 = +++)
227 (ESAPKEVSRY; listed as Homo sapiens) [compound 227] | ++ (>20% = ++)
59 (FTDSQGNDIK; listed as Homo sapiens) [compound 59] | +++ (>50 = +++)
272 (IPQDECLRY; listed as Homo sapiens) [compound 272] | +++ (>50 = +++)
211 (YLNEWGSRF; listed as Homo sapiens) [compound 211] | ++ (>20% = ++)
235 (SIEIDHTQY; listed as Homo sapiens) [compound 235] | ++ (>20% = ++)
340 (SVDSNLVAY; listed as Homo sapiens) [compound 340] | +++ (>50 = +++)

Hey, can you go through the list below and give me Peptide exchange for every item?
1. 379 (SLIIDDTEY; listed as Homo sapiens) [compound 379]
2. 388 (YTAHVGYSMY; listed as Homo sapiens) [compound 388]
3. 6 (ARDPITFSF; listed as Homo sapiens) [compound 6]
4. 193 (SQNGQLIHY; listed as Homo sapiens) [compound 193]

1: ++ (>20% = ++); 2: ++++ (>75% = ++++); 3: ++ (>20% = ++); 4: +++ (>50 = +++)

Return reported Peptide exchange values for all items listed beneath this line.
1. 107 (TTENSGNYY; listed as Homo sapiens) [compound 107]
2. 109 (ISEDKSISF; listed as Homo sapiens) [compound 109]
3. 394 (QVPLDCVLY; listed as Homo sapiens) [compound 394]
4. 248 (VTDIDELGK; listed as Homo sapiens) [compound 248]
5. 132 (RTHIGYKVY; listed as Homo sapiens) [compound 132]
6. 339 (ESMDIFPLGW; listed as Homo sapiens) [compound 339]
7. 140 (SQHIFTVSY; listed as Homo sapiens) [compound 140]
8. 353 (RLNGSVASY; listed as Homo sapiens) [compound 353]

1: ++++ (>75% = ++++); 2: ++ (>20% = ++); 3: ++ (>20% = ++); 4: +++ (>50 = +++); 5: +++ (>50 = +++); 6: ++ (>20% = ++); 7: ++ (>20% = ++); 8: ++ (>20% = ++)

For every item below, please supply its Peptide exchange.
1. 153 (HSIEVFTHY; listed as Homo sapiens) [compound 153]
2. 267 (IVADDTVY; listed as Homo sapiens) [compound 267]
3. 331 (YLYQAPGSLALY; listed as Homo sapiens) [compound 331]
4. 320 (QALQDKLQTFY; listed as Homo sapiens) [compound 320]
5. 122 (ISEAPLTEV; listed as Homo sapiens) [compound 122]
6. 50 (ITDEDEDMLSY; listed as Homo sapiens) [compound 50]

1: ++ (>20% = ++); 2: +++ (>50 = +++); 3: ++++ (>75% = ++++); 4: ++ (>20% = ++); 5: ++ (>20% = ++); 6: +++ (>50 = +++)

Batch of 3 substances: report Peptide exchange for each.
1. 204 (NVKEAPTEY; listed as Homo sapiens) [compound 204]
2. 41 (HSDLLEDSKY; listed as Homo sapiens) [compound 41]
3. 305 (YADLLIYTY; listed as Homo sapiens) [compound 305]

1. ++ (>20% = ++)
2. +++ (>50 = +++)
3. ++++ (>75% = ++++)
